The reported measurements were obtained from patent US20250213547A1.

# method: Healthy Japanese subjects, Part 2 (100, 200, 300 mg BID up-titration): PK of TAK-935 and M-I
# Type: in vivo, human
# assay-setup: human, plasma, oral, 300 mg, Day 21, TAK-935 300 mg BID, plasma, mean; read-out: Cmax
test-readout: Cmax
Quick note: number first, unit second.

query: Which Cmax is reported for this compound? O=C(c1cccnc1-c1ccncc1)N1CCC(O)(Cc2ccccc2)CC1 [soticlestat]
result: 2060 ng/mL

====

# method: Healthy Japanese subjects, Part 2 (100, 200, 300 mg BID up-titration): PK of TAK-935 and M-I
# Type: in vivo, human
# assay-setup: human, plasma, oral, 100 mg, Day 1, TAK-935 100 mg BID, plasma, mean; read-out: t1/2z (terminal disposition phase half-life) (converted)
test-readout: half-life (h)
Give bare numbers, in h.

query: Which half-life is reported for this compound? O=C(c1cccnc1-c1ccncc1)N1CCC(O)(Cc2ccccc2)CC1 [soticlestat]
result: 5.99

====

# method: clinical
# Type: in vivo
# assay-setup: both sexes, human, in vivo, po, 1350 mg
test-readout: AUC(0-t) (ng·h/mL)
Give bare numbers, in ng·h/mL.

query: Which AUC(0-t) is reported for this compound? O=C(c1cccnc1-c1ccncc1)N1CCC(O)(Cc2ccccc2)CC1
result: 13500

====

# method: Healthy Japanese subjects, Part 2 (100, 200, 300 mg BID up-titration): PK of TAK-935 and M-I
# Assay type: in vivo, human
# assay-setup: human, plasma, oral, 300 mg, Day 21 (300 mg BID), Part 2, Mean; read-out: Tmax
test-readout: Tmax (min)
One number for each entry, in min.

query: Which Tmax is reported for this compound? O=C(c1cccnc1-c1ccncc1)N1CCC(O)(Cc2ccccc2)CC1
result: 32.5

====

# method: Healthy Japanese subjects, Part 1 (single dose 200, 600, 1200 mg tablets): PK of TAK-935 and M-I
# Format: in vivo, human
# assay-setup: human, oral; TAK-935 1200 mg single dose, plasma, mean; read-out: Vz/F
test-readout: Vd/F (L)
One number for each entry, in L.

query: Which Vd/F is reported for this compound? O=C(c1cccnc1-c1ccncc1)N1CCC(O)(Cc2ccccc2)CC1
result: 769

====

# method: clinical
# Type: in vivo
# assay-setup: both sexes, human, in vivo, po, 200 mg
test-readout: Vd/F (L)
Numbers only, in L.

query: Which Vd/F is reported for this compound? O=C(c1cccnc1-c1ccncc1)N1CCC(O)(Cc2ccccc2)CC1 [soticlestat]
result: 2240

====

# method: Healthy Japanese subjects, Part 2 (100, 200, 300 mg BID up-titration): PK of TAK-935 and M-I
# Format: in vivo, human
# assay-setup: human, plasma, oral, 100 mg, Day 7, TAK-935 100 mg BID, plasma, mean; read-out: AUCτ (AUC during a dosing interval)
test-readout: AUC (µg·h/mL)
One number for each entry, in µg·h/mL.

query: Which AUC is reported for this compound? O=C(c1cccnc1-c1ccncc1)N1CCC(O)(Cc2ccccc2)CC1
result: 0.224

====

# method: Healthy Japanese subjects, Part 1 (single dose 200, 600, 1200 mg tablets): PK of TAK-935 and M-I
# Assay type: in vivo, human
# assay-setup: human, plasma, oral; TAK-935; single dose 200 mg
test-readout: Cmax (ng/mL)
Answers are plain numbers, in ng/mL.

query: Which Cmax is reported for this molecule? O=C(c1cccnc1-c1ccncc1)N1CCC(O)(Cc2ccccc2)CC1 [soticlestat]
result: 850

====

# method: Healthy Japanese subjects, Part 2 (100, 200, 300 mg BID up-titration): PK of TAK-935 and M-I
# Assay type: in vivo, human
# assay-setup: human, plasma, oral, 200 mg, Day 14 (200 mg BID), Part 2, Median; read-out: AUC1ast
test-readout: AUC (ng·h/mL)
Answers are plain numbers, in ng·h/mL.

query: Which AUC is reported for this compound? O=C(c1cccnc1-c1ccncc1)N1CCC(O)(Cc2ccccc2)CC1
result: 794

====

# method: Healthy Japanese subjects, Part 2 (100, 200, 300 mg BID up-titration): PK of TAK-935 and M-I
# Format: in vivo, human
# assay-setup: human, plasma, oral, 100 mg, Day 1 (100 mg BID), Part 2, Median; read-out: Cmax
# Description: This study consisted of 2 parts, and was a randomized, double-blind, placebo-controlled study to assess safety, tolerability, and PK and PD of TAK-935 when administered orally in healthy Japanese subjects. […] The PK parameters of TAK-935 and its metabolites (M-I) were determined from the concentration-time profiles for all evaluable subjects. […] The following PK parameters were calculated from plasma concentrations of TAK-935 and its metabolites (M-I), unless otherwise specified: […]
test-readout: Cmax (ng/mL)
Answers are plain numbers, in ng/mL.

query: Which Cmax is reported for this compound? O=C(c1cccnc1-c1ccncc1)N1CCC(O)(Cc2ccccc2)CC1
result: 146

====

# method: Healthy Japanese subjects, Part 1 (single dose 200, 600, 1200 mg tablets): PK of TAK-935 and M-I
# Format: in vivo, human
# assay-setup: human, oral; TAK-935 1200 mg single dose, plasma, mean; read-out: t1/2z (terminal disposition phase half-life) (converted)
test-readout: half-life (h)
Numbers only, in h.

query: Which half-life is reported for this molecule? O=C(c1cccnc1-c1ccncc1)N1CCC(O)(Cc2ccccc2)CC1
result: 5.08

====

# method: Healthy Japanese subjects, Part 2 (100, 200, 300 mg BID up-titration): PK of TAK-935 and M-I
# Format: in vivo, human
# assay-setup: human, plasma, oral, 300 mg, Day 21, TAK-935 300 mg BID, plasma, mean; read-out: AUCτ (AUC during a dosing interval)
test-readout: AUC (ng·h/mL)
Numbers only, in ng·h/mL.

query: Which AUC is reported for this compound? O=C(c1cccnc1-c1ccncc1)N1CCC(O)(Cc2ccccc2)CC1
result: 2020

====

# method: Healthy Japanese subjects, Part 2 (100, 200, 300 mg BID up-titration): PK of TAK-935 and M-I
# Format: in vivo, human
# assay-setup: human, plasma, oral, 300 mg, Day 21, TAK-935 300 mg BID, plasma, median; read-out: tmax
test-readout: Tmax (min)
Answers are plain numbers, in min.

query: Which Tmax is reported for this compound? O=C(c1cccnc1-c1ccncc1)N1CCC(O)(Cc2ccccc2)CC1 [soticlestat]
result: 30

====

# method: clinical
# assay-setup: human, in vivo, 300 mg
test-readout: Tmax (min)
Give bare numbers, in min.

query: Which Tmax is reported for this compound? O=C(c1cccnc1-c1ccncc1)N1CCC(O)(Cc2ccccc2)CC1
result: 31.8

====

# method: Healthy Japanese subjects, Part 1 (single dose 200, 600, 1200 mg tablets): PK of TAK-935 and M-I
# Format: in vivo, human
# assay-setup: human, oral; TAK-935 1200 mg single dose, plasma, mean
test-readout: AUC(0-t) (ng·h/mL)
Answers are plain numbers, in ng·h/mL.

query: Which AUC(0-t) is reported for this compound? O=C(c1cccnc1-c1ccncc1)N1CCC(O)(Cc2ccccc2)CC1 [soticlestat]
result: 11400

====

# method: clinical
# Type: in vivo
# assay-setup: both sexes, human, in vivo, po, 900 mg, Cmax, mean
test-readout: Cmax (ng/mL)
Answers are plain numbers, in ng/mL.

query: Which Cmax is reported for this compound? O=C(c1cccnc1-c1ccncc1)N1CCC(O)(Cc2ccccc2)CC1 [soticlestat]
result: 5080

====

# method: Healthy Japanese subjects, Part 1 (single dose 200, 600, 1200 mg tablets): PK of TAK-935 and M-I
# Format: in vivo, human
# assay-setup: human, plasma, oral; TAK-935; single dose 1200 mg
test-readout: Cmax (ng/mL)
Numbers only, in ng/mL.

query: Which Cmax is reported for this compound? O=C(c1cccnc1-c1ccncc1)N1CCC(O)(Cc2ccccc2)CC1 [soticlestat]
result: 10200

====

# method: clinical
# Format: in vivo
# assay-setup: both sexes, human, in vivo, po, 50 mg
test-readout: Tmax (min)
Numbers only, in min.

query: Which Tmax is reported for this compound? O=C(c1cccnc1-c1ccncc1)N1CCC(O)(Cc2ccccc2)CC1
result: 15

====

# method: clinical
# assay-setup: human, in vivo, 300 mg, AUC24 / mean steady-state area under the curve
# Description: Soticlestat was administered in tablet formulation during fasting condition. […] Blood samples were obtained before the first morning dose, and at 1, 3, and 5 hours post-dose. On days 11 and 21, blood samples were taken before the morning dose and 1 hour post-dose. In Part B, patients were administered 200 mg BID for days 31-40, followed by 300 mg BID for days 41-85. On days 31, 41, and 85, blood samples were taken before the morning dose. […]
test-readout: AUC

query: Which AUC is reported for this compound? O=C(c1cccnc1-c1ccncc1)N1CCC(O)(Cc2ccccc2)CC1
result: 2190 ng·h/mL
